Tested on: 242566-281-R-J2-PDC complex spheroid viability;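 also: spheroids exposed to compounds for 7 days before readout; 100% = DMSO vehicle control wells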
METHOD NOTES: Anticancer human tumor 242566-281-R-J2-PDC patient-derived pancreatic carcinoma cell line growth inhibition [CLK]; active = viability on the fitted dose curve at most 10% of control; inactive = the rest
STUDY CONDITIONS: second compound 3.16 µM; first compound 0.1 µM
Classes used: 1 for active, 0 for inactive

1) C=CC(=O)N1CCN(c2nc(=O)n(-c3c(C)ccnc3C(C)C)c3nc(-c4c(O)cccc4F)c(F)cc23)C(C)C1 (stereo not given) + CN1CCN(c2cc(C(=O)Nc3cc4cc(-c5cnn(C)c5)ccc4cn3)ccn2)CC1 ... 1
2) CC1COCCN1c1cc(C2(S(C)(=N)=O)CC2)nc(-c2ccnc3[nH]ccc23)n1 (stereo not given) + CNC(=O)c1ccc(Nc2nc(OC3CCCC3)c3c(-c4ccc5nc(C)oc5c4)c[nH]c3n2)c(OC)c1 ... 0
3) CC1(C)CCC(CN2CCN(c3ccc(C(=O)NS(=O)(=O)c4ccc(NCC5CCOCC5)c([N+](=O)[O-])c4)c(Oc4cnc5[nH]ccc5c4)c3)CC2)=C(c2ccc(Cl)cc2)C1 + CNC(=O)c1ccc(Nc2nc(OC3CCCC3)c3c(-c4ccc5nc(C)oc5c4)c[nH]c3n2)c(OC)c1 ... 0
4) COc1c(OCCCN2CCOCC2)ccc2c3n(c(=NC(=O)c4cnc(N)nc4)nc12)CCN3 + CN1CCN(c2cc(C(=O)Nc3cc4cc(-c5cnn(C)c5)ccc4cn3)ccn2)CC1 ... 1
5) CCN1CCN(Cc2ccc(Nc3ncc(F)c(-c4cc(F)c5nc(C)n(C(C)C)c5c4)n3)nc2)CC1 + CNC(=O)c1ccc(Nc2nc(OC3CCCC3)c3c(-c4ccc5nc(C)oc5c4)c[nH]c3n2)c(OC)c1 ... 0
